Source of measurements: patent US8415480B2

- measured-on: human Prostaglandin F2α receptor (Homo sapiens, UniProt P43088)
- Sequence (P43088 whole entry): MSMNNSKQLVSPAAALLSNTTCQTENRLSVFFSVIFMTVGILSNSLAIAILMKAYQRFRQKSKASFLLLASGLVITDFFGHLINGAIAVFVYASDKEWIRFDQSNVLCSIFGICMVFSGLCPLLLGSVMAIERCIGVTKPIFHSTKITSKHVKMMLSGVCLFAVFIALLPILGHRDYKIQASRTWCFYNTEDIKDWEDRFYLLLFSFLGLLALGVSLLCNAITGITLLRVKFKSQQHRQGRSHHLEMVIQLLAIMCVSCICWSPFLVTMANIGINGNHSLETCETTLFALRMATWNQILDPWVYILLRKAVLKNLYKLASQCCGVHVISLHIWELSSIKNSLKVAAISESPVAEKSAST
pKi: −log10 of the molar value.
Outcome: condition met for pKi of at least 7; condition not met for anything lower.

Consider the following illustrative entries.
{"columns": ["compound", "class-name"],
 "data": [
  ["CC(=O)NCCNCCC(NC(=O)C1SCCN1S(=O)(=O)c1ccc(-c2ccccc2)cc1)c1ccccc1 (centres unmarked)", "condition not met"],
  ["O=C(NC(CCO)c1c(F)cccc1F)C1SCCN1S(=O)(=O)c1ccc(-c2ccccc2)cc1 (centres unmarked)", "condition met"],
  ["O=C(N[C@H](c1ccccc1)c1ccccn1)[C@@H]1SCCN1S(=O)(=O)c1ccc(-c2ccccc2)cc1", "condition met"]
]}

Consider now this further compound.
input: For this compound, is measured pKi 7 or higher? Cc1c(S(=O)(=O)N2CCSC2C(=O)N[C@@H](Cc2ccccc2)C(=O)O)sc2ccc(Cl)cc12 (some centres unmarked)
output: condition not met

###

- measured-on: human Prostaglandin F2α receptor (Homo sapiens)
- Construct: Human Prostaglandin F2α receptor (full-length cDNA) was subcloned into the pCEP4; expressed in transfected cells; host or cells: HEK 293 EBNA cells (membrane preparation)
- assay-text: Inhibition of Prostaglandin F2α induced IP3 synthesis in HEK/EBNA cells expressing the Prostaglandin F2α receptor
- Format: cell-based
- condition-context: HEK EBNA cells expressing the human Prostaglandin F2α receptor; 30 nM PGF2α
Each entry below carries its recorded IC50.
Record the value in µM, omitting the unit from your answer.

Completed entries (count: 2):
{"columns": ["compound", "measurement-unit", "measurement"],
 "data": [
  ["CN(CCO)CC[C@H](NC(=O)[C@@H]1SCCN1S(=O)(=O)c1ccc(-c2ccccc2)cc1)c1ccccc1 [Example 21]", "µM", 0.225],
  ["O=C(N[C@@H](CCO)c1ccccc1)[C@@H]1SCCN1S(=O)(=O)c1ccc(-c2ccccc2)cc1 [Example 1]", "µM", 0.185]
]}

input: Entry O=C(N[C@H](c1ccccc1)c1ccccn1)[C@@H]1SCCN1S(=O)(=O)c1ccc(-c2ccccc2)cc1 [Example 62] has what IC50?
output: 0.015
